Biological target: Delta-type opioid receptor (Homo sapiens, UniProt P41143)
Sequence (P41143 whole entry): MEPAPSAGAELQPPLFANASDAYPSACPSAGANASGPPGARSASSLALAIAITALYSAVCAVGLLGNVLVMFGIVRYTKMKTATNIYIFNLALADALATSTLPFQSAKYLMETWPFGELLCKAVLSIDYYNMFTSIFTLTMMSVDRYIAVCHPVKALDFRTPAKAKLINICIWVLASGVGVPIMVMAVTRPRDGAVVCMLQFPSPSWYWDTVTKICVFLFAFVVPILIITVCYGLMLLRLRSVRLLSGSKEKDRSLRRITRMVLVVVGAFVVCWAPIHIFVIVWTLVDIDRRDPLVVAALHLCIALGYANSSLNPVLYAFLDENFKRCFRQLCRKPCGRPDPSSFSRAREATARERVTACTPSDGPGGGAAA
Test: Agonist activity at human cloned delta opioid receptor expressed in CHO cells assessed as stimulation of [35S]GTP-gamma-S binding
attribute-measured: EC50
Hi, when you answer, please include the unit after the number. Thanks!

For the molecule `C[C@H]1[C@@H]2CC[C@@H](c3ccccc3)CN2CC[C@@]1(C)c1cccc(O)c1` , what EC50 is on record?
55 nM

====

Biological target: UniProt P35372
Sequence (P35372 whole entry): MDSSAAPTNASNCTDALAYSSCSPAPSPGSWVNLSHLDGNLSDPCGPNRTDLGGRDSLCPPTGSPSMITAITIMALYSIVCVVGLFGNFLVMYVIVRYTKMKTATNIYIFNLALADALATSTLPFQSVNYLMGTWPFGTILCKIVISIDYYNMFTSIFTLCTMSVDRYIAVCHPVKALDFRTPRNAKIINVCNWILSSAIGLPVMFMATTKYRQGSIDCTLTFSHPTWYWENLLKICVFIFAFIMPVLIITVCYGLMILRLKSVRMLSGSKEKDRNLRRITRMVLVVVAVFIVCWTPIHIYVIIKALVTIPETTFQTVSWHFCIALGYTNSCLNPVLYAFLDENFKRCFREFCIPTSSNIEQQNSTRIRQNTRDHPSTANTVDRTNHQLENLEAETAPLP
Experiment: Antagonist activity against human cloned mu opioid receptor expressed in CHO cells assessed as inhibition of loperamide-stimulated [35S]GTP-gamma-S binding
attribute-measured: IC50 (µM)
Record the value in µM, omitting the unit from your answer.

Item `C[C@H]1CN2C[C@@H](c3ccccc3)CC[C@H]2C[C@@]1(C)c1cccc(O)c1` has what recorded IC50?
0.11

Which value of IC50 has been reported for `C[C@H]1CN2C[C@H](c3ccccc3)CC[C@@H]2C[C@@]1(C)c1cccc(O)c1` in the records?
0.21

Recorded IC50 for `C[C@H]1[C@H]2CC[C@@H](c3ccccc3)CN2CC[C@@]1(C)c1cccc(O)c1` , please?
0.12

Request the reported IC50 associated with `C[C@H]1[C@@H]2CCCCN2CC[C@@]1(C)c1cccc(O)c1`
1

Fill in: IC50 of `C[C@H]1CN2C[C@H](c3ccccc3)CC[C@H]2C[C@@]1(C)c1cccc(O)c1` is ___
0.00054

Item `C[C@H]1[C@@H]2CC[C@H](c3ccccc3)CN2CC[C@@]1(C)c1cccc(O)c1` has what recorded IC50?
0.15

Which IC50 is reported for this compound? `C[C@H]1[C@H]2CC[C@H](c3ccccc3)CN2CC[C@@]1(C)c1cccc(O)c1`
0.19

This collection of values is drawn from ChEMBL document CHEMBL1137299.
